# procedure-text: Half life by intravenous administration of 6.8 umol/kg dose in mice
# Type: ADME, organism-based
# measurement-setup: mouse, in vivo
readout-label: half-life (h)
Give just the numeric value; h need not be written.

Item under review: CCCC(=O)C1(c2ccccc2)CCN(C(=O)[C@@H](Cc2ccc(OC)cc2)NC(=O)[C@@H](N)Cc2cncn2C)CC1 . Reported half-life?
1.5

###

# assay-system: Melanocortin receptor 3 (Homo sapiens, UniProt P41968)
# Sequence (P41968 whole entry): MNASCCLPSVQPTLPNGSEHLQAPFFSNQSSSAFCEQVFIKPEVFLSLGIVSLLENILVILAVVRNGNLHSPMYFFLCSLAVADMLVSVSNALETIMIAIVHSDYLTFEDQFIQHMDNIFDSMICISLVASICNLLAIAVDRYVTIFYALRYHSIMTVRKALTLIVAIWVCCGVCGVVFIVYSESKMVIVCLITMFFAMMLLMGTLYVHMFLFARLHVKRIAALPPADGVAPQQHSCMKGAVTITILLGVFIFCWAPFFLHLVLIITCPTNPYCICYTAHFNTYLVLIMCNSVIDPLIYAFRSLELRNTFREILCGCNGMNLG
# procedure-text: In vitro intrinsic activity against human Melanocortin 3 receptor (MC3R)
Would you please tag the item yes when its Intrinsic activity is 80% or above, and no when it is below?

[[record]]
sample_smiles = "CCCC(=O)C1(c2ccccc2)CCN(C(=O)[C@@H](Cc2ccc(OC)cc2)NC(=O)[C@@H](Cc2c[nH]cn2)NC(C)=O)CC1"
group = "yes"

[[record]]
sample_smiles = "CCCC(=O)C1(c2ccccc2)CCN(C(=O)[C@@H](Cc2ccc(OC)cc2)NC(=O)[C@@H](N)Cc2cncn2C)CC1"
group = "no"


Textbook exercise: given the entry CCCC(=O)C1(c2ccccc2)CCN(C(=O)[C@@H](Cc2ccc(OC)cc2)NC(=O)[C@H](N)Cc2c[nH]cn2)CC1 , state whether its Intrinsic activity is greater than or equal to 80%.
yes

Textbook exercise: given the entry CCCC(=O)C1(c2ccccc2)CCN(C(=O)[C@@H](Cc2ccc(OC)cc2)NC(=O)[C@@H](Cc2c[nH]cn2)NC(=O)c2ccccc2)CC1 , state whether its Intrinsic activity is greater than or equal to 80%.
yes

Textbook exercise: given the entry CCCC(=O)C1(c2ccccc2)CCN(C(=O)[C@@H](Cc2ccc(OC)cc2)NC(=O)CCc2c[nH]cn2)CC1 , state whether its Intrinsic activity is greater than or equal to 80%.
yes

Textbook exercise: given the entry CCCC(=O)C1(c2ccccc2)CCN(C(=O)[C@@H](Cc2ccc(OC)cc2)NC(=O)[C@H](O)Cc2c[nH]cn2)CC1 , state whether its Intrinsic activity is greater than or equal to 80%.
yes
